- EXPERIMENT DESCRIPTION: ATG_MRE_CIS: Attagene CIS-FACTORIAL HepG2 Assay for human Metal Responsive Element (MRE) (AID 2282954)
- MEASUREMENT CONDITIONS: HepG2 MRE cis-reporter transcription, Attagene multiplex; actives raise or lower the signal
Active and inactive are the calls of the source. How the source made its calls: active means hit-call score of the fitted dose curve at least 0.9, where 1 is the maximum; inactive means score below 0.9.
The categories you may choose from are Yes for active, No for inactive

Answered cases to consult:
1. Nc1nc(Cl)nc2c1ncn2[C@H]1C[C@H](O)[C@@H](CO)O1 = No
2. O=C1CCCCC1 = No

Ask | Returns: the outcome recorded for N[C@@H](Cc1c[nH]c2ccccc12)C(=O)O in this assay.
Reply | No

Ask | Also COC(=O)CCC(=O)OC , if possible.
Reply | No

###

- Read-out: Cytochrome P450 (CYP2B6), CYP2B6 (gene 1555)
- EXPERIMENT DESCRIPTION: LTEA_HepaRG_CYP2B6: Life Technologies and Expression Analysis (LTEA) Assay for Cytochrome P450 (CYP2B6) using HepaRG (AID 2283481)
- MEASUREMENT CONDITIONS: mRNA level, 48 h; actives raise or lower the signal
Activity calls are given as the source filed them. The calls were made as follows: active = hit-call score of the fitted dose curve at least 0.9, where 1 is the maximum; inactive = score below 0.9.
One label from this list, please: active, inactive

The examples below pair each entry with its known result.
1. CN(C)C(=O)NC1(c2ccccc2)CCN(CC[C@@]2(c3ccc(F)c(F)c3)CN(C(=O)c3ccccc3)CCO2)CC1 = inactive
2. CC(C)(C)c1ccccc1 = inactive
3. Cc1cc(Cc2ccc(N)c(C)c2)ccc1N = active

Ask | Outcome? CCCCCCCCCC[N+](C)(C)[O-]
Reply | active

Ask | Param item: CCc1nc(N)nc(N)c1-c1ccc(Cl)cc1
Reply | active

Ask | Let us now turn to O=C(O)c1[nH]n(-c2ccc(S(=O)(=O)O)cc2)c(=O)c1N=Nc1ccc(S(=O)(=O)O)cc1
Reply | inactive

Ask | // same read-out, input: CCCCC(CC)CO (configuration not stated)
Reply | inactive

Ask | Now the compound Nc1nc(=S)c2[nH]cnc2[nH]1
Reply | active

Ask | Another: O=C(O)CC(O)(CC(=O)O)C(=O)O
Reply | inactive

Ask | Also COC(=O)[C@H]1[C@H]2C[C@@H]3c4[nH]c5cc(OC)ccc5c4CCN3C[C@H]2C[C@@H](OC(=O)c2cc(OC)c(OC)c(OC)c2)[C@@H]1OC ?
Reply | active

Ask | // next record NC1CCCCC1
Reply | inactive

Ask | What about this compound? O=C(N[C@@H](c1ccccc1)[C@@H]1CCCCN1)c1cccc(C(F)(F)F)c1Cl
Reply | active

Ask | Another: CCC(C)N(C)C(=O)c1cc2ccccc2c(-c2ccccc2Cl)n1 (configuration not stated)
Reply | active

Ask | Do the same for OCC(CO)n1cnc(-c2ccc(F)cc2)c1-c1ccnc(Oc2ccccc2)n1 please
Reply | active

Ask | Request: Oc1ccc(O)cc1
Reply | inactive

Ask | Next record, please: CCCCCCC(CCCCCCCCCCC(=O)OCC(COC(C)=O)OC(C)=O)OC(C)=O (configuration not stated)
Reply | inactive

Ask | Now consider CCc1cc(C2=C(C(=O)O)N(c3ccccc3C(F)(F)F)S(=O)(=O)c3ccccc32)cc2c1OCO2 and answer again.
Reply | active

Ref: PubChem BioAssay (EPA / NIEHS)
